- assay.method.text: Brain/cerebrospinal fluid transport test
- Type: in vivo, male SD rats
- conditions: male, SD, cerebrospinal fluid; rat, 2 hours after oral administration (10 mg/kg); read-out: concentration in the cerebrospinal fluid

| molecule | concentration at 2 h (nM) |
| --- | --- |
| O=C1OC2(CCC(c3nc4cnc(-c5ccccc5)nc4[nH]3)CC2)c2ccccc21 (stereo not shown) | 33 |
